The following binders are listed with their measured Response values.
Target: P.1 Spike (SARS-CoV2)
measured.property: Response

* Ab_13 scFv-Fc (scFv, V domains shown) VH: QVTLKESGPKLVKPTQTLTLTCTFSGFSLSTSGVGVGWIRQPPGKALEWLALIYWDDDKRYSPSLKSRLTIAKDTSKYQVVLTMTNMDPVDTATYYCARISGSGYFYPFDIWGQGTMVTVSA VL: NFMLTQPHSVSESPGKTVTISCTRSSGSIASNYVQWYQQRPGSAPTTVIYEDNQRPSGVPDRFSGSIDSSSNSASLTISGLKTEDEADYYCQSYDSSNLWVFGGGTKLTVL | 0.112
* Ab_14 scFv-Fc (scFv, V domains shown) VH: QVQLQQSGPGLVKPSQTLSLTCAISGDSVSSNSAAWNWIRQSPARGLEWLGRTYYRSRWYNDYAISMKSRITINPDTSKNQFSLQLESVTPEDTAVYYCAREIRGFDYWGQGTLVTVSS VL: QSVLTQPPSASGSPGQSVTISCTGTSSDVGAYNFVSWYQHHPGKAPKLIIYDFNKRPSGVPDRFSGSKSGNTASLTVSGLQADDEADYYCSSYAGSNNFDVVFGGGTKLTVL | 0.27
